- target-or-test-system: anti-CD28 Fab
- Sequence (VH, as listed by the source, chain 1 of 2): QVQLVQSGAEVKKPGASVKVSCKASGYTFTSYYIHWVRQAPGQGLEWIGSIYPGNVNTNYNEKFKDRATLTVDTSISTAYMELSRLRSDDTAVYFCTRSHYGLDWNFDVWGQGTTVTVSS
- Sequence (VL, as listed by the source, chain 2 of 2): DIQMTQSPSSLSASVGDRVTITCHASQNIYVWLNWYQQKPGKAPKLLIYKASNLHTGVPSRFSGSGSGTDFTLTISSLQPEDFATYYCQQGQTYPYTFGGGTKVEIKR
- test-protocol: competition ELISA, peptide titrated 0-100 uM against 1 nM anti-CD28 Fab, plate-bound CD28 as competitor
For each record, write down the corresponding IC50.
// note: answer is a bare numeric in nM

Exercise: # get_value(readout='IC50', item= YCEGHLPEYIEKCL [Peptide-120] )
Key: 360

Exercise: # get_value(readout='IC50', item= YCEGHLPEYIWKCL [Peptide-135] )
Key: 630

Exercise: # get_value(readout='IC50', item= YCEGHAPEYIAKCL [Peptide-121] )
Key: 480

Exercise: # get_value(readout='IC50', item= YCEGHSSEYIQKCL [Peptide-129] )
Key: 3180

Exercise: # get_value(readout='IC50', item= YCEGHLPEYLAKCL [Peptide-127] )
Key: 300

Exercise: # get_value(readout='IC50', item= YCEGHLPEYLGKCL [Peptide-125] )
Key: 830

Exercise: # get_value(readout='IC50', item= YCEGHSPEYILKCL [Peptide-117] )
Key: 1530

Data origin, for the record: patent US20260242478A1
